# Target or test system: T1, human IGF-1 receptor (human, UniProt P08069 31-1367)
# T1 construct: whole, on cells; also called IGF-IR; IGR-1R
# Measurement notes: competition with 125I-IGF-1, receptor membranes, SPA
Bridges are numbered along the chain shown (N, C = ends). Roman numbers before positions name the chains, in order. Where no end group is shown, it is not given here.
Metric name: % IGF-1 (in test) (%)
Give the quantity in %, number only.

Check the records and state % IGF-1 (in test) for IGF-1 A:B(E10 Y16L17)-E31E32 B-COOH (ligand, disulfide I:6-I:11, I:20-II:18, I:7-II:6) chain 1: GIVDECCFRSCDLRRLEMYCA-NH2 chain 2: GPETLCGAELVDALYLVCGDRGFYFNKPTEE-OH
3

Give the measured % IGF-1 (in test) for IGF-1 A:B (E10Y16L17) DPI (ligand, disulfide I:6-I:11, I:20-II:18, I:7-II:6) chain 1: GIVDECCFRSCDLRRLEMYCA-NH2 chain 2: GPETLCGAELVDALYLVCGDRGFY-NH2
3.3

Fill in reported % IGF-1 (in test) for this entry: IGF-1 A:B (H5D10Y16L17) DPI (ligand, disulfide I:6-I:11, I:20-II:18, I:7-II:6) chain 1: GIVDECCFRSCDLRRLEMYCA-NH2 chain 2: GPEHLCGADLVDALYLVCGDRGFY-NH2
11.2

Identify measured % IGF-1 (in test) corresponding to IGF-1 A:IGF-1 B(1-8)-In (9-17)-IGF-1 B(18-30) (ligand, disulfide I:6-I:11, I:20-II:18, I:7-II:6) chain 1: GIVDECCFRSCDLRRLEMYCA-NH2 chain 2: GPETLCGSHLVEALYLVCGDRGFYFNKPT-NH2
0.3
